Readings of viability, T/C for the listed compounds
System: 242566-281-R-J2-PDC complex spheroid viability
Test: Anticancer human tumor 242566-281-R-J2-PDC patient-derived pancreatic carcinoma cell line growth inhibition [RAS]
Settings: second compound 0.1 µM; first compound 0.1 µM; stronger effect = lower value
Supply the numeric figure in %, leaving out any unit text.

- compound: "CCC(CC)c1cc(NC2CCC(N)C2)n2nccc2n1 (stereo not given) + C#Cc1c(F)ccc2cc(O)cc(-c3ncc4c(N5CC6CCC(C5)N6)nc(OCC56CCCN5CC(F)C6)nc4c3F)c12"
  result-type: "viability, T/C"
  result-value: 92.1
- compound: "NC1c2ccccc2OC12CCN(c1cnc3c(N4CCCc5ncccc54)n[nH]c3n1)CC2 (stereo not given) + C#Cc1c(F)ccc2cc(O)cc(-c3ncc4c(N5CC6CCC(C5)N6)nc(OCC56CCCN5CC(F)C6)nc4c3F)c12"
  result-type: "viability, T/C"
  result-value: 49
- compound: "CCN1CCN(Cc2ccc(Nc3ncc(F)c(-c4cc(F)c5nc(C)n(C(C)C)c5c4)n3)nc2)CC1 + C=CC(=O)N1CCN(c2nc(OCC3CCCN3C)nc3c(F)c(-c4nc(N)cc(C)c4C(F)(F)F)c(Cl)cc23)C(C)C1"
  result-type: "viability, T/C"
  result-value: 89.3
- compound: "Nc1ccn(C2OC(CO)C(O)C2(F)F)c(=O)n1 (stereo not given) + C=CC(=O)N1CCN(c2nc(OCC3CCCN3C)nc3c(F)c(-c4nc(N)cc(C)c4C(F)(F)F)c(Cl)cc23)C(C)C1"
  result-type: "viability, T/C"
  result-value: 50.8

Please look up its viability, T/C: CC(=O)OC12COC1CC(O)C1(C)C(=O)C(O)C3=C(C)C(OC(=O)C(O)C(NC(=O)OC(C)(C)C)c4ccccc4)CC(O)(C(OC(=O)c4ccccc4)C21)C3(C)C (stereo not given) + C=CC(=O)N1CCN(c2nc(OCC3CCCN3C)nc3c(F)c(-c4nc(N)cc(C)c4C(F)(F)F)c(Cl)cc23)C(C)C1
51.4

---

Readings of IC50 for the listed compounds
System: 242566-281-R-J2-PDC complex spheroid viability
Test: Anticancer human tumor 242566-281-R-J2-PDC cell line growth inhibition [RAS];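 further: spheroids exposed to compound for 7 days before readout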
Conditions: curve of first compound; second compound 0.316 µM
Description: RAS pathway inhibitors in Combinations in Complex Spheroids A high-throughput screen of multi-cell type tumor spheroids was designed to identify active combinations of RAS pathway inhibitors and targeted small molecules. Complex spheroids include a stromal component modeled by human endothelial cells (HUVEC) and fibroblasts modeled by human mesenchymal stem cells (MSCs). […] Compounds. […] If the clinical Cmax for an agent had not been determined, the highest concentration tested was 10 microM. […]

- compound: "C=CC(=O)N1CCN(c2nc(OCC3CCCN3C)nc3c(F)c(-c4nc(N)cc(C)c4C(F)(F)F)c(Cl)cc23)C(C)C1 (stereo unspecified) + C#Cc1c(F)ccc2cc(O)cc(-c3ncc4c(N5CC6CCC(C5)N6)nc(OCC56CCCN5CC(F)C6)nc4c3F)c12"
  result-value: "> 1 µM"
- compound: "CC(C)NCC(C(=O)N1CCN(c2ncnc3c2C(C)CC3O)CC1)c1ccc(Cl)cc1 (stereo unspecified) + C=CC(=O)N1CCN(c2nc(OCC3CCCN3C)nc3c(F)c(-c4nc(N)cc(C)c4C(F)(F)F)c(Cl)cc23)C(C)C1"
  result-value: "> 10 µM"
- compound: "CC(=O)OC12COC1CC(O)C1(C)C(=O)C(O)C3=C(C)C(OC(=O)C(O)C(NC(=O)OC(C)(C)C)c4ccccc4)CC(O)(C(OC(=O)c4ccccc4)C21)C3(C)C (stereo unspecified) + C=CC(=O)N1CCN(c2nc(OCC3CCCN3C)nc3c(F)c(-c4nc(N)cc(C)c4C(F)(F)F)c(Cl)cc23)C(C)C1"
  result-value: "> 10 µM"
- compound: "CC1(C)CCC(Nc2ncc(C(F)(F)F)c(-c3c[nH]c4c(P(C)(C)=O)c(C#N)ccc34)n2)CN1 (stereo unspecified) + C#Cc1c(F)ccc2cc(O)cc(-c3ncc4c(N5CC6CCC(C5)N6)nc(OCC56CCCN5CC(F)C6)nc4c3F)c12"
  result-value: "> 0.3 µM"
- compound: "O=C(c1ccc(F)c(F)c1Nc1ccc(I)cc1F)N1CC(O)([C@@H]2CCCCN2)C1 + C=CC(=O)N1CCN(c2nc(OCC3CCCN3C)nc3c(F)c(-c4nc(N)cc(C)c4C(F)(F)F)c(Cl)cc23)C(C)C1"
  result-value: "> 1 µM"

Please look up its IC50: C[C@@H](NC(=O)c1ncnc(N)c1Cl)c1ncc(C(=O)Nc2cc(C(F)(F)F)c(Cl)cn2)s1 + C#Cc1c(F)ccc2cc(O)cc(-c3ncc4c(N5CC6CCC(C5)N6)nc(OCC56CCCN5CC(F)C6)nc4c3F)c12
> 10 µM

Please look up its IC50: CCN1CCN(Cc2ccc(Nc3ncc(F)c(-c4cc(F)c5nc(C)n(C(C)C)c5c4)n3)nc2)CC1 + C#Cc1c(F)ccc2cc(O)cc(-c3ncc4c(N5CC6CCC(C5)N6)nc(OCC56CCCN5CC(F)C6)nc4c3F)c12
> 1 µM

Please look up its IC50: Cc1nc(N2CCC3(CC2)COC(C)C3N)c(CO)nc1Sc1ccnc(N)c1Cl (stereo unspecified) + C=CC(=O)N1CCN(c2nc(OCC3CCCN3C)nc3c(F)c(-c4nc(N)cc(C)c4C(F)(F)F)c(Cl)cc23)C(C)C1
> 10 µM

Please look up its IC50: NC1c2ccccc2OC12CCN(c1cnc3c(N4CCCc5ncccc54)n[nH]c3n1)CC2 (stereo unspecified) + C#Cc1c(F)ccc2cc(O)cc(-c3ncc4c(N5CC6CCC(C5)N6)nc(OCC56CCCN5CC(F)C6)nc4c3F)c12
< 0.0316 µM

Please look up its IC50: CC(=O)OC12COC1CC(O)C1(C)C(=O)C(O)C3=C(C)C(OC(=O)C(O)C(NC(=O)OC(C)(C)C)c4ccccc4)CC(O)(C(OC(=O)c4ccccc4)C21)C3(C)C (stereo unspecified) + C#Cc1c(F)ccc2cc(O)cc(-c3ncc4c(N5CC6CCC(C5)N6)nc(OCC56CCCN5CC(F)C6)nc4c3F)c12
< 0.0316 µM

Please look up its IC50: C[C@@H](NC(=O)c1ncnc(N)c1Cl)c1ncc(C(=O)Nc2cc(C(F)(F)F)c(Cl)cn2)s1 + C=CC(=O)N1CCN(c2nc(OCC3CCCN3C)nc3c(F)c(-c4nc(N)cc(C)c4C(F)(F)F)c(Cl)cc23)C(C)C1
> 10 µM

---

Tested on: 242566-281-R-J2-PDC complex spheroid viability
Assay: Anticancer human tumor 242566-281-R-J2-PDC cell line growth inhibition [RAS];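 further: spheroids exposed to compound for 7 days before readout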;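 on viability, T/C: 100% = DMSO vehicle control wells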
Conditions: second compound 0.00949 µM; first compound 1 µM; stronger effect = lower value
Excerpt: RAS pathway inhibitors in Combinations in Complex Spheroids A high-throughput screen of multi-cell type tumor spheroids was designed to identify active combinations of RAS pathway inhibitors and targeted small molecules. Complex spheroids include a stromal component modeled by human endothelial cells (HUVEC) and fibroblasts modeled by human mesenchymal stem cells (MSCs). […] Compounds. […] If the clinical Cmax for an agent had not been determined, the highest concentration tested was 10 microM. […]
Decide using viability, T/C alone. Strictly below 40%: met. Equal to or above 40%: not met.

- molecule: "Cc1nc(N2CCC3(CC2)COC(C)C3N)c(CO)nc1Sc1ccnc(N)c1Cl (centres undefined) + CCn1c(-c2cc(N3CCN(C)CC3)cnc2C(C)OC)c2c3cc(ccc31)-c1csc(n1)CC(NC(=O)C1CC1C)C(=O)N1CCCC(N1)C(=O)OCC(C)(C)C2"
  assigned-label: "met"
- molecule: "CC1(O)CCCC1n1c(=O)c(C(F)F)cc2cnc(NC3CCN(S(C)(=O)=O)CC3)nc21 (centres undefined) + CCn1c(-c2cccnc2C(C)OC)c2c3cc(ccc31)N1CCOC(CC(NC(=O)C(C(C)C)N(C)C(=O)C3(F)CCN(C(=O)C#CC(C)(C)N(C)C)CC3)C(=O)N3CCCC(N3)C(=O)OCC(C)(C)C2)C1"
  assigned-label: "not met"
- molecule: "CC(=O)OC12COC1CC(O)C1(C)C(=O)C(O)C3=C(C)C(OC(=O)C(O)C(NC(=O)OC(C)(C)C)c4ccccc4)CC(O)(C(OC(=O)c4ccccc4)C21)C3(C)C (centres undefined) + CCn1c(-c2cccnc2C(C)OC)c2c3cc(ccc31)N1CCOC(CC(NC(=O)C(C(C)C)N(C)C(=O)C3(F)CCN(C(=O)C#CC(C)(C)N(C)C)CC3)C(=O)N3CCCC(N3)C(=O)OCC(C)(C)C2)C1"
  assigned-label: "met"

Just wondering, is viability, T/C of CC(C)NCC(C(=O)N1CCN(c2ncnc3c2C(C)CC3O)CC1)c1ccc(Cl)cc1 (centres undefined) + CCn1c(-c2cccnc2C(C)OC)c2c3cc(ccc31)N1CCOC(CC(NC(=O)C(C(C)C)N(C)C(=O)C3(F)CCN(C(=O)C#CC(C)(C)N(C)C)CC3)C(=O)N3CCCC(N3)C(=O)OCC(C)(C)C2)C1 below 40%?
not met

Just wondering, is viability, T/C of C=CC(=O)Nc1cc(Nc2nccc(-c3cn(C)c4ccccc34)n2)c(OC)cc1N(C)CCN(C)C + CCn1c(-c2cccnc2C(C)OC)c2c3cc(ccc31)N1CCOC(CC(NC(=O)C(C(C)C)N(C)C(=O)C3(F)CCN(C(=O)C#CC(C)(C)N(C)C)CC3)C(=O)N3CCCC(N3)C(=O)OCC(C)(C)C2)C1 below 40%?
not met

Data origin, for the record: PubChem BioAssay AID2060910
